B1: CPEB3 Ribozyme (parent)
chain: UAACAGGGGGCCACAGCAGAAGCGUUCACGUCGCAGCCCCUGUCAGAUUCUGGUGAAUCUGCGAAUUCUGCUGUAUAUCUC

- Variants of: B1
- assay method text: self-cleavage, relative activity (ratio to wild type); higher = more cleavage; in vitro, sequencing
Each entry below lists one item and its recorded self-cleavage value.
parameter measured: self-cleavage

INSERT INTO results (mutation_id, value_reported) VALUES
  ('A18U A64U', 0.28),
  ('A5C A35U', 0.54),
  ('U51G A64U', 0.52),
  ('U41C G46C', 0.42),
  ('U1C G53A', 0.98),
  ('C11G U78C', 0.43),
  ('C37U U80A', 0.99),
  ('G22A C68G', 0.11),
  ('A35G C79A', 1.3),
  ('A21G U74C', 0.96),
  ('U26G U48A', 0.37);
